System: Streptococcus pneumoniae
Test: Antibacterial activity against Streptococcus pneumoniae CL2883 by turbidity method
Type: functional
Settings: read-out: MIC100
measured quantity: MIC (ng/mL)
Enter your answer as a number in ng/mL; do not include the unit.

Prompt line: State its MIC on Streptococcus pneumoniae: `CO/C(C)=C1/NC(=O)[C@H]([C@@H](C)O)NC(=O)c2csc(n2)-c2cc(O)c(-c3nc(CN(CCO)CCO)cs3)nc2-c2csc(n2)[C@@H]2COC(=O)c3c4c5c(cccc5n3O)COC(=O)[C@@H](O[C@H]3C[C@](C)(O)[C@H](N(C)C)[C@H](C)O3)[C@@H](OC4)[C@H](NC(=O)c3csc1n3)c1nc(cs1)C(=O)N2`
Response line: 7.5

----------
System: Streptococcus pneumoniae
Experiment: Antibacterial activity against Streptococcus pneumoniae CL2883 by turbidity method
Format: functional
Conditions: read-out: MIC100
measured quantity: MIC (ng/mL)
Enter your answer as a number in ng/mL; do not include the unit.

Some entries whose results are on file:
Prompt line: May I ask what MIC has been recorded for `CO/C(C)=C1/NC(=O)[C@H]([C@@H](C)O)NC(=O)c2csc(n2)-c2cc(O)c(-c3nc(CN)cs3)nc2-c2csc(n2)[C@@H]2COC(=O)c3c4c5c(cccc5n3O)COC(=O)[C@@H](O[C@H]3C[C@](C)(O)[C@H](N(C)C)[C@H](C)O3)[C@@H](OC4)[C@H](NC(=O)c3csc1n3)c1nc(cs1)C(=O)N2` ?
Response line: 0.47

Prompt line: Now consider `CO/C(C)=C1/NC(=O)[C@H]([C@@H](C)O)NC(=O)c2csc(n2)-c2cc(O)c(-c3nc(CNCc4cncnc4)cs3)nc2-c2csc(n2)[C@@H]2COC(=O)c3c4c5c(cccc5n3O)COC(=O)[C@@H](O[C@H]3C[C@](C)(O)[C@H](N(C)C)[C@H](C)O3)[C@@H](OC4)[C@H](NC(=O)c3csc1n3)c1nc(cs1)C(=O)N2` .
Response line: 0.7

# ---- query molecule ----
Prompt line: May I ask what MIC has been recorded for `CO/C(C)=C1/NC(=O)[C@H]([C@@H](C)O)NC(=O)c2csc(n2)-c2cc(O)c(-c3nc(CNC(=O)CCN4CCOCC4)cs3)nc2-c2csc(n2)[C@@H]2COC(=O)c3c4c5c(cccc5n3O)COC(=O)[C@@H](O[C@H]3C[C@](C)(O)[C@H](N(C)C)[C@H](C)O3)[C@@H](OC4)[C@H](NC(=O)c3csc1n3)c1nc(cs1)C(=O)N2` ?
Response line: 7.5

----------
Tested on: Staphylococcus aureus
Assay: Antibacterial activity against Staphylococcus aureus MB2865 by turbidity method
Format: functional
Conditions: read-out: MIC100
measured quantity: MIC (µg/mL)
Enter your answer as a number in µg/mL; do not include the unit.

Some entries whose results are on file:
Prompt line: State its MIC on Staphylococcus aureus: `CO/C(C)=C1/NC(=O)[C@H]([C@@H](C)O)NC(=O)c2csc(n2)-c2cc(O)c(-c3nc(CNC(=O)CN(C)C)cs3)nc2-c2csc(n2)[C@@H]2COC(=O)c3c4c5c(cccc5n3O)COC(=O)[C@@H](O[C@H]3C[C@](C)(O)[C@H](N(C)C)[C@H](C)O3)[C@@H](OC4)[C@H](NC(=O)c3csc1n3)c1nc(cs1)C(=O)N2`
Response line: 0.06

Prompt line: Now consider `CO/C(C)=C1/NC(=O)[C@H]([C@@H](C)O)NC(=O)c2csc(n2)-c2cc(O)c(-c3nc(CNCCO)cs3)nc2-c2csc(n2)[C@@H]2COC(=O)c3c4c5c(cccc5n3O)COC(=O)[C@@H](O[C@H]3C[C@](C)(O)[C@H](N(C)C)[C@H](C)O3)[C@@H](OC4)[C@H](NC(=O)c3csc1n3)c1nc(cs1)C(=O)N2` .
Response line: 0.03

# ---- query molecule ----
Prompt line: State its MIC on Staphylococcus aureus: `CO/C(C)=C1/NC(=O)[C@H]([C@@H](C)O)NC(=O)c2csc(n2)-c2cc(O)c(-c3nc(CNC(=O)C(N)=O)cs3)nc2-c2csc(n2)[C@@H]2COC(=O)c3c4c5c(cccc5n3O)COC(=O)[C@@H](O[C@H]3C[C@](C)(O)[C@H](N(C)C)[C@H](C)O3)[C@@H](OC4)[C@H](NC(=O)c3csc1n3)c1nc(cs1)C(=O)N2`
Response line: 0.0075

----------
Consider the following compounds and their measured MIC readings.
Test system: Streptococcus pneumoniae
Assay: Antibacterial activity against Streptococcus pneumoniae CL2883 by turbidity method
Format: functional
Settings: read-out: MIC100
Enter your answer as a number in ng/mL; do not include the unit.

Prompt line: May I ask what MIC has been recorded for `CO/C(C)=C1/NC(=O)[C@H]([C@@H](C)O)NC(=O)c2csc(n2)-c2cc(O)c(-c3nc(CN(C)C)cs3)nc2-c2csc(n2)[C@@H]2COC(=O)c3c4c5c(cccc5n3O)COC(=O)[C@@H](O[C@H]3C[C@](C)(O)[C@H](N(C)C)[C@H](C)O3)[C@@H](OC4)[C@H](NC(=O)c3csc1n3)c1nc(cs1)C(=O)N2` ?
Response line: 0.95

# ---- query compound ----
Prompt line: May I ask what MIC has been recorded for CO/C(C)=C1/NC(=O)[C@H]([C@@H](C)O)NC(=O)c2csc(n2)-c2cc(O)c(-c3nc(CNCC(O)CO)cs3)nc2-c2csc(n2)[C@@H]2COC(=O)c3c4c5c(cccc5n3O)COC(=O)[C@@H](O[C@H]3C[C@](C)(O)[C@H](N(C)C)[C@H](C)O3)[C@@H](OC4)[C@H](NC(=O)c3csc1n3)c1nc(cs1)C(=O)N2 (some centres not stated) ?
Response line: 7.5

----------
System: Staphylococcus aureus
Assay: Antibacterial activity against Staphylococcus aureus MB2865 by turbidity method
Type: functional
Details: read-out: MIC100
measured quantity: MIC (µg/mL)
Enter your answer as a number in µg/mL; do not include the unit.

Prompt line: May I ask what MIC has been recorded for `CO/C(C)=C1/NC(=O)[C@H]([C@@H](C)O)NC(=O)c2csc(n2)-c2cc(O)c(-c3nc(CN)cs3)nc2-c2csc(n2)[C@@H]2COC(=O)c3c4c5c(cccc5n3O)COC(=O)[C@@H](O[C@H]3C[C@](C)(O)[C@H](N(C)C)[C@H](C)O3)[C@@H](OC4)[C@H](NC(=O)c3csc1n3)c1nc(cs1)C(=O)N2` ?
Response line: 0.077

# ---- query compound ----
Prompt line: May I ask what MIC has been recorded for `CO/C(C)=C1/NC(=O)[C@H]([C@@H](C)O)NC(=O)c2csc(n2)-c2cc(O)c(-c3nc(CNC(=O)CN4CCOCC4)cs3)nc2-c2csc(n2)[C@@H]2COC(=O)c3c4c5c(cccc5n3O)COC(=O)[C@@H](O[C@H]3C[C@](C)(O)[C@H](N(C)C)[C@H](C)O3)[C@@H](OC4)[C@H](NC(=O)c3csc1n3)c1nc(cs1)C(=O)N2` ?
Response line: 0.0075

----------
Test system: Streptococcus pneumoniae
Assay: Antibacterial activity against Streptococcus pneumoniae CL2883 by turbidity method
Format: functional
Details: read-out: MIC100
Consider the following molecules and their measured MIC readings.
Enter your answer as a number in ng/mL; do not include the unit.

Some entries whose results are on file:
Prompt line: State its MIC on Streptococcus pneumoniae: CO/C(C)=C1/NC(=O)[C@H]([C@@H](C)O)NC(=O)c2csc(n2)-c2cc(O)c(-c3nc(CNC(=O)NCC(O)CO)cs3)nc2-c2csc(n2)[C@@H]2COC(=O)c3c4c5c(cccc5n3O)COC(=O)[C@@H](O[C@H]3C[C@](C)(O)[C@H](N(C)C)[C@H](C)O3)[C@@H](OC4)[C@H](NC(=O)c3csc1n3)c1nc(cs1)C(=O)N2 (stereo partly drawn)
Response line: 15

Prompt line: Now consider `CO/C(C)=C1/NC(=O)[C@H]([C@@H](C)O)NC(=O)c2csc(n2)-c2cc(O)c(-c3nc(CNC(=O)CN4CCN(C)CC4)cs3)nc2-c2csc(n2)[C@@H]2COC(=O)c3c4c5c(cccc5n3O)COC(=O)[C@@H](O[C@H]3C[C@](C)(O)[C@H](N(C)C)[C@H](C)O3)[C@@H](OC4)[C@H](NC(=O)c3csc1n3)c1nc(cs1)C(=O)N2` .
Response line: 0.7

# ---- query molecule ----
Prompt line: State its MIC on Streptococcus pneumoniae: `CO/C(C)=C1/NC(=O)[C@H]([C@@H](C)O)NC(=O)c2csc(n2)-c2cc(O)c(-c3nc(CNCC(C)(C)N4CCOCC4)cs3)nc2-c2csc(n2)[C@@H]2COC(=O)c3c4c5c(cccc5n3O)COC(=O)[C@@H](O[C@H]3C[C@](C)(O)[C@H](N(C)C)[C@H](C)O3)[C@@H](OC4)[C@H](NC(=O)c3csc1n3)c1nc(cs1)C(=O)N2`
Response line: 0.46

Every entry's value here was drawn from ChEMBL document CHEMBL2311426.
